# SYSTEM_UNDER_TEST: Voltage-gated potassium channel subunit beta-2 (Rattus norvegicus)
# EXPERIMENTAL_DETAILS: KvBeta enzyme negative modulators, primary screen, biochemical, NADPH fluorescence (AID 622);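 also: slope of raw intensity against log time taken from 70 to 1610 s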
# CONDITION_SUMMARY: recombinant KvBeta, 4-cyanobenzaldehyde reduction, at 10 µM, hits give high values
Outcome: y for fluorescence slope of at least -0.4; n for anything lower.

[
  {
    "COMPOUND": "CCOC(=O)N1CCN(C(=O)CSc2ncnc3ccccc23)CC1",
    "CLASSIFICATION": "n"
  },
  {
    "COMPOUND": "CCC1(C)Cc2c(sc(NC(=O)CCC(=O)O)c2C#N)CO1 (stereo unspecified)",
    "CLASSIFICATION": "y"
  },
  {
    "COMPOUND": "CCOc1ccc(NS(=O)(=O)c2ccc(OCC(=O)N3CCCC3)cc2)cc1",
    "CLASSIFICATION": "n"
  },
  {
    "COMPOUND": "CCN(CC)Cc1c(O)ccc2c(C)c(CC(=O)OC)c(=O)oc12",
    "CLASSIFICATION": "y"
  },
  {
    "COMPOUND": "CCc1nc2sc3ccccc3c(=O)c2c(=O)n1Cc1ccco1",
    "CLASSIFICATION": "n"
  },
  {
    "COMPOUND": "CC1(C)NC(=O)N(CCOc2cccc(Cl)c2Cl)C1=O",
    "CLASSIFICATION": "y"
  },
  {
    "COMPOUND": "CCOc1ccc2nc(NC(NC(=O)CC)(C(=O)OC)C(F)(F)F)sc2c1 (stereo unspecified)",
    "CLASSIFICATION": "n"
  },
  {
    "COMPOUND": "Cc1cccc(NC(=O)c2c(C)cc(=O)oc2C)n1",
    "CLASSIFICATION": "y"
  },
  {
    "COMPOUND": "N#CC1=C(SCC(=O)NC2CCCCC2)NC(=O)CC1c1ccco1 (stereo unspecified)",
    "CLASSIFICATION": "n"
  },
  {
    "COMPOUND": "COc1ccc(-c2ccc(-c3noc(-c4ccccc4)n3)c(OC)n2)cc1",
    "CLASSIFICATION": "y"
  },
  {
    "COMPOUND": "O=C(C(c1ccccc1)N1CCOCC1)N1CCOCC1 (stereo unspecified)",
    "CLASSIFICATION": "n"
  }
]

----------
# SYSTEM_UNDER_TEST: Voltage-gated potassium channel subunit beta-2 (Rattus norvegicus) (UniProt P62483)
# Sequence (P62483 whole entry, looked up): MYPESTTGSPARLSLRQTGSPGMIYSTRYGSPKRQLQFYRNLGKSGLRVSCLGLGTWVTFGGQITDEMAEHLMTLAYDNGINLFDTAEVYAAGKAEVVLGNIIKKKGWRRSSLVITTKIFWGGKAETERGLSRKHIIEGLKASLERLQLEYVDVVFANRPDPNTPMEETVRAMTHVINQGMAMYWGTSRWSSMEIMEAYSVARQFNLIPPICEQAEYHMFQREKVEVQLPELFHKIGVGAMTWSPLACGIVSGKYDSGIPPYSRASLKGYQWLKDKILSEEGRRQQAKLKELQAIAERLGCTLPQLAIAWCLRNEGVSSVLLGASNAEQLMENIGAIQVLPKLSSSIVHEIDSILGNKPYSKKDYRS
# EXPERIMENTAL_DETAILS: KvBeta positive modulators, primary screen, biochemical, NADPH fluorescence (AID 623);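 also: fluorescence intensity change per second fitted from 20 to 320 s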
# CONDITION_SUMMARY: Recombinant KvBeta, NADPH fluorescence decrease slope, 10 min; at 10 µM; hits give low values

[
  {
    "COMPOUND": "c1ccc(-n2ncc3c(N4CCCC4)ncnc32)cc1",
    "NADPH fluorescence slope": "-3.1e-05"
  },
  {
    "COMPOUND": "CS(=O)(=O)c1ccc2nc(NC(NC(=O)c3ccco3)(C(F)(F)F)C(F)(F)F)sc2c1",
    "NADPH fluorescence slope": "-8.9e-05"
  },
  {
    "COMPOUND": "CS(=O)(=O)N1CCN(c2ccccc2NC(=O)c2cccs2)CC1",
    "NADPH fluorescence slope": "1.2e-05"
  },
  {
    "COMPOUND": "CCc1nnc(NC(=O)c2cc3ccccc3oc2=O)s1",
    "NADPH fluorescence slope": "-2e-05"
  },
  {
    "COMPOUND": "CCOC(=O)N1CCN(CCC(=O)c2ccc(Cl)cc2)CC1",
    "NADPH fluorescence slope": "-3.9e-05"
  },
  {
    "COMPOUND": "O=C(CN(C1CCCCC1)S(=O)(=O)c1ccccc1)NCc1cccnc1",
    "NADPH fluorescence slope": "-3e-05"
  },
  {
    "COMPOUND": "C=CCc1cc(OC)ccc1OCC(O)CN1CCN(c2ccc(OC)cc2)CC1 (stereo unspecified)",
    "NADPH fluorescence slope": "7.7e-07"
  },
  {
    "COMPOUND": "O=C1OC(N2CCN(C/C=C/c3ccccc3)CC2)c2ccccc21 (stereo unspecified)",
    "NADPH fluorescence slope": -0.000109
  },
  {
    "COMPOUND": "COc1ccc(C2CC(c3ccc(C)cc3)Nc3nc(N)nn32)cc1 (stereo unspecified)",
    "NADPH fluorescence slope": "-7.3e-05"
  },
  {
    "COMPOUND": "Nc1ccc2oc(-c3ccccc3Cl)nc2c1",
    "NADPH fluorescence slope": "-5.7e-05"
  },
  {
    "COMPOUND": "CC(NC(=O)CSc1nnc(COc2ccccc2)o1)c1ccccc1 (stereo unspecified)",
    "NADPH fluorescence slope": -0.000143
  }
]
